Consider the following compounds and their measured inhibition in vivo at 24 mg/kg readings.
- System: Mus musculus
- Experimental details: Compound was tested for inhibitory activity in oral mouse cholesterol biosynthesis assay at the dose of 24 mg/Kg
- Format: functional

{"Compound": "C=C(CCC12OC(C(=O)OCCC(C)C)C(O)(C(=O)OCC(=O)c3ccc(Br)cc3)C(C(=O)O)(O1)[C@H](OC(=O)/C=C/[C@@H](C)C[C@@H](C)CC)[C@H]2O)[C@@H](OC(C)=O)[C@H](C)Cc1ccccc1 (stereo partly drawn)", "inhibition in vivo at 24 mg/kg (%)": 7}
{"Compound": "C=C(CCC12OC(C(=O)OCCC(C)C)C(O)(C(=O)OCC(=O)N(CC)CC)C(C(=O)O)(O1)[C@H](OC(=O)/C=C/[C@@H](C)C[C@@H](C)CC)[C@H]2O)[C@@H](OC(C)=O)[C@H](C)Cc1ccccc1 (stereo partly drawn)", "inhibition in vivo at 24 mg/kg (%)": 15}
{"Compound": "C=C(CCC12OC(C(=O)OCCC(C)C)C(O)(C(=O)OCCCCCCCC)C(C(=O)O)(O1)[C@H](OC(=O)/C=C/[C@@H](C)C[C@@H](C)CC)[C@H]2O)[C@@H](OC(C)=O)[C@H](C)Cc1ccccc1 (stereo partly drawn)", "inhibition in vivo at 24 mg/kg (%)": 5}
